# target of assay: T1, TAMRA-labeled α-synuclein peptide
# T1 chain: GYQDYEPEA
# protocol notes: fluorescence polarization
# experimental parameters: chain shown with the change;; parent: est. 13 x10^7 M^-1; read off a plot
measured parameter: Ka

Sample answers from the record:
binder | Ka
N2.12 VHH W52bL (protein) QGQLVESGGGSVQAGGSLRLSCAASGIDSSSYCMGWFRQRPGKEREGVGRINGLRGIKTAYADSVKDRFTISRDNAENTVYLQMNSLKPEDTAIYYCAAKSSPGYCGGTWSNFGYWGQGTQVTVSS | 6.2 x10^7 M^-1
N2.12 VHH R53G (protein) QGQLVESGGGSVQAGGSLRLSCAASGIDSSSYCMGWFRQRPGKEREGVGRINGWGGIKTAYADSVKDRFTISRDNAENTVYLQMNSLKPEDTAIYYCAAKSSPGYCGGTWSNFGYWGQGTQVTVSS | 7.1 x10^7 M^-1

Next item in the queue.
Quick one: Ka for N2.12 VHH T100dS (protein) QGQLVESGGGSVQAGGSLRLSCAASGIDSSSYCMGWFRQRPGKEREGVGRINGWRGIKTAYADSVKDRFTISRDNAENTVYLQMNSLKPEDTAIYYCAAKSSPGYCGGSWSNFGYWGQGTQVTVSS ?
8.5 x10^7 M^-1
